Molecular target: T1, hFc tagged human LAG3 ECD recombinant protein (human, UniProt P18627 23-450)
T1 construct: range 23-450; also called biotin labelled hFc tagged human LAG3 ECD; not shown: human IgG Fc tag
T1 sequence (looked up): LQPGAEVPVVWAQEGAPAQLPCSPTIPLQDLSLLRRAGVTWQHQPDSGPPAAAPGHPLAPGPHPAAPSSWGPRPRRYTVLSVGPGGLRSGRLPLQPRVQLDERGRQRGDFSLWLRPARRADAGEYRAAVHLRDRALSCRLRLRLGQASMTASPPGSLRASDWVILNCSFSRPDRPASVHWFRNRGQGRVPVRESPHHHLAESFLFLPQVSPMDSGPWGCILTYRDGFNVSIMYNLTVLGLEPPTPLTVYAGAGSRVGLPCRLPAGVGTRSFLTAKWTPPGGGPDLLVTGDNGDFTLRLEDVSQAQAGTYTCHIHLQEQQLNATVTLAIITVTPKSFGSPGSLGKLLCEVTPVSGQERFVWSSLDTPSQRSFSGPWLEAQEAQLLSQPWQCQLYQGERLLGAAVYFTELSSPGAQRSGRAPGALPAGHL
Experiment: competitive FACS: hFc-LAG3 ECD binding to Raji cells (MHC II)
measure: TOP blocking (%)

Input line: Determine its reported TOP blocking (%): Antibody 021 (antibody, V domains shown, mouse hybridoma antibody) VH: DIQLQESGPGLVKPSQSLSLTCSVTGYSITSGYYWNWIRQFPGNKLEWMGDISYDGGNNYNPSLKNRISITRDTSKNQFFLKLNSVTTEDTATYYCARDITLTGAMDYWGQGTSVTVSS VL: DIVLTQSPASLAVSLGQRATISCRASESVDNYGISFMHWYQQRPGQPPKLLIYRASNLESGIPARFSGSGSRTDFTLTINPVETDDVATYYCQQSNKDPYTFGGGTKLEIK
Output line: 98.6%

Input line: Read the entry Antibody 029 (antibody, V domains shown, mouse hybridoma antibody) VH: DVKLVESGEDLVKPGGSLKLSCAASGFTFSSYAMSWVRQTPEKRLEWVAYVTSGGDYIYYADTVKGRFTISRDDVRNTLYLQMSSLKSEDTAMYYCTRVAYDYEWYFDVWGTGAPVTVSS VL: DIVMTQSHKFMSTSVGDRVSITCKASQDVTTAVAWYQQKPGQSPKLLIYSASYRYTGVSDRFTGSGSGTDFTFTISSVQAEDLALYYCQQHDSSPWTFGGGTKLEIK and write its reported TOP blocking (%).
Output line: 90.7%

Input line: Report TOP blocking (%), nothing else, for this binder: Antibody 015 (antibody, V domains shown, mouse hybridoma antibody) VH: EVQLQQSGPVLVKPGASVKLSCKASGFTFTDYYMNWVKLSHGKSLEWIGVINPFNGDTAYKQKFKGKATLTVDKSSSTAYMELNSLTSEDSAVYYCARDDGYYLYYFDSWGQGTTLTVSS VL: DIQMTQSPSSLSASLGERVSLTCRASQDIGSRLNWLQQEPDGTIKRLIYATSSLDSGVPKRFSGSRSGSDYSLTISSLDSEDFVVYYCLQYASSPPTFGAGTKLELK
Output line: 94.3%
